From: paper PMC9667936

Listed here: items and their measured ΔG.
- targetOfAssay: 14-3-3γ (Homo sapiens, UniProt P61981)
- Construct: made in house; host or cells: E. coli NiCo21 (DE3)
- Sequence (P61981 whole entry): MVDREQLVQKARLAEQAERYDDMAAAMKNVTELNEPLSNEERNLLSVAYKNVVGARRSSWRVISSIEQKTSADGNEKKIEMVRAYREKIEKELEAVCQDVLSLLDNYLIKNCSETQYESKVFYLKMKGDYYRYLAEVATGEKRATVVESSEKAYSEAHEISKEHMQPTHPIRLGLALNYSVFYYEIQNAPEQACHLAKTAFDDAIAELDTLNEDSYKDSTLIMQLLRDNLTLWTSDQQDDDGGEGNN
- testMethodNotes: Isothermal titration calorimetry (ITC) of 14-3-3 binding to peptide
- details: Table S6; ITC, 25 °C; average of two runs
Where a SMILES comes first, the peptide text is derived from it. [ ]: non-standard residue; d: D form. ξ: configuration not given here. Phe(4-NO2) = N[C@@H](Cc1ccc([N+](=O)[O-])cc1)C(=O)O; ξAla(4-thiazolyl) = NC(Cc1cscn1)C(=O)O; pS = N[C@@H](COP(=O)(O)O)C(=O)O; β3hS = N[C@@H](CO)CC(=O)O; Nva = CCC[C@H](N)C(=O)O; βAla = NCCC(=O)O

Some solved cases for reference:
{"columns": ["compound", "targetOfAssay", "result"],
 "data": [
  ["CCC[C@H](NC(=O)[C@H](N)CCCCN)C(=O)N[C@@H](Cc1ccc([N+](=O)[O-])cc1)C(=O)NC(Cc1cscn1)C(=O)N[C@@H](COP(=O)(O)O)C(=O)N[C@@H](Cc1ccc([N+](=O)[O-])cc1)C(=O)N[C@@H](CO)CC(=O)NCCC(=O)N[C@@H](Cc1ccc(O)cc1)C(=O)N[C@@H](CCCCN)C(N)=O (stereo partly drawn) [5a] (H-[dK][Nva][Phe(4-NO2)][ξAla(4-thiazolyl)][pS][Phe(4-NO2)][β3hS][βAla]YK-NH2; N-terminus and C-terminus assumed)", "14-3-3γ (Homo sapiens, UniProt P61981)", "-7,78 kcal mol^-1"],
  ["CCC[C@H](NC(=O)[C@H](N)CCCCN)C(=O)N[C@@H](Cc1ccc([N+](=O)[O-])cc1)C(=O)NC(Cc1cscn1)C(=O)N[C@@H](COP(=O)(O)O)C(=O)N[C@@H](C)C(=O)N[C@@H](CO)CC(=O)NCCC(=O)N[C@@H](Cc1ccc([N+](=O)[O-])cc1)C(=O)N[C@@H](CCCCN)C(N)=O (stereo partly drawn) [4c] (H-[dK][Nva][Phe(4-NO2)][ξAla(4-thiazolyl)][pS]A[β3hS][βAla][Phe(4-NO2)]K-NH2; N-terminus and C-terminus assumed)", "14-3-3γ (Homo sapiens, UniProt P61981)", "-8,35 kcal mol^-1"]
]}

Consider the additional compound presented here.
State ΔG (14-3-3γ (Homo sapiens, UniProt P61981)) of CCC[C@H](NC(=O)[C@H](N)CCCCN)C(=O)N[C@@H](Cc1ccc([N+](=O)[O-])cc1)C(=O)NC(Cc1cscn1)C(=O)N[C@@H](COP(=O)(O)O)C(=O)N[C@@H](Cc1ccc([N+](=O)[O-])cc1)C(=O)N[C@@H](CO)CC(=O)NCCC(=O)N[C@@H](Cc1ccccc1)C(=O)N[C@@H](CCCCN)C(N)=O (stereo partly drawn) [5b] (H-[dK][Nva][Phe(4-NO2)][ξAla(4-thiazolyl)][pS][Phe(4-NO2)][β3hS][βAla]FK-NH2; N-terminus and C-terminus assumed) .
-7,88 kcal mol^-1
